- Tested on: Aspergillus fumigatus
- assayDetails: Antifungal activity against Aspergillus fumigatus MTCC 343 by two-fold serial dilution method
- Assay type: functional
measurementKind: MIC

Find the recorded MIC belonging to Cc1ccc(-c2nc3ccccc3c3c2c(-c2ccccc2)c(-c2ccccc2)n2c(=O)[nH]nc32)cc1 and report it. > 100 µg/mL

Cool, now O=c1[nH]nc2c3c(c(-c4ccccc4)nc4ccccc43)c(-c3ccccc3)c(-c3ccccc3)n12 25 µg/mL

Cool, now Nc1ccc(C2=N/C(=N/N=C(/C[n+]3c(-c4ccccc4)cc(C(=O)O)c4ccccc43)c3ccccc3)SC2)cc1.[I-] > 100 µg/mL

Cool, now O=c1[nH]nc2c3c(c(-c4ccc(Cl)cc4)nc4ccccc43)c(-c3ccccc3)c(-c3ccccc3)n12 > 100 µg/mL

* * *

- System: Candida albicans
- assayDetails: Antifungal activity against Candida albicans ATCC 24433 by disk diffusion method
- Type: functional
Respond with Criterion met for diameter of the inhibition zone (DIZ) values of 7 mm and above, Criterion not met for values below.

Threshold query (diameter of the inhibition zone (DIZ) >= 7 mm) on Cc1ccc(-c2nc3ccccc3c3c2c(-c2ccccc2)c(-c2ccccc2)n2c(=S)[nH]nc32)cc1 Criterion not met

Cool, now O=C(O)c1cc(-c2ccc(Cl)cc2)[n+](C/C(=N/N=C2/N=C(c3ccccc3)CS2)c2ccccc2)c2ccccc12.[I-] Criterion met

Cool, now O=c1[nH]nc2c3c(c(-c4ccc(Cl)cc4)nc4ccccc43)c(-c3ccccc3)c(-c3ccccc3)n12 Criterion met

Cool, now Cc1ccc(-c2cc(C(=O)O)c3ccccc3[n+]2C/C(=N/N=C2/N=C(c3ccccc3)CS2)c2ccccc2)cc1.[I-] Criterion met

* * *

- Tested on: Pseudomonas aeruginosa
- assayDetails: Antibacterial activity against Pseudomonas aeruginosa ATCC 25615 by disc diffusion method
- Type: functional
Field: diameter of the inhibition zone (DIZ). Provide a value for each of the molecules that follow.
Please state the figure in mm; there is no need to write the unit.

Find the recorded diameter of the inhibition zone (DIZ) belonging to Nc1ccc(C2=N/C(=N/N=C(/C[n+]3c(-c4ccc(Cl)cc4)cc(C(=O)O)c4ccccc43)c3ccccc3)SC2)cc1.[I-] and report it. 8

Cool, now S=c1[nH]nc2c3c(c(-c4ccccc4)nc4ccccc43)c(-c3ccccc3)c(-c3ccccc3)n12 8

Cool, now Cc1ccc(-c2cc(C(=O)O)c3ccccc3[n+]2C/C(=N/N=C2/N=C(c3ccccc3)CS2)c2ccccc2)cc1.[I-] 8

* * *

Field: MIC. Provide a value for each of the molecules that follow.
- Tested on: Candida albicans
- assayDetails: Antifungal activity against Candida albicans ATCC 24433 by two-fold serial dilution method
- Assay type: functional

Find the recorded MIC belonging to S=c1[nH]nc2c3c(c(-c4ccccc4)nc4ccccc43)c(-c3ccccc3)c(-c3ccccc3)n12 and report it. > 100 µg/mL

Cool, now O=C(O)c1cc(-c2ccccc2)[n+](C/C(=N/N=C2/N=C(c3ccccc3)CS2)c2ccccc2)c2ccccc12.[I-] > 50 µg/mL

Cool, now Cc1ccc(-c2nc3ccccc3c3c2c(-c2ccccc2)c(-c2ccccc2)n2c(=S)[nH]nc32)cc1 > 100 µg/mL

src = ChEMBL document CHEMBL3045434
